# runDescription: folding stability dG unfold from trypsin proteolysis; higher = more stable
propertyName: folding stability dG unfold (kcal/mol)
One number for each entry, in kcal/mol.

Known results for sequences:
Respond only with folding stability dG unfold recorded for SAGGSIETIAERARDLARELNPDDGKEYPITIEIRDPENNRPIRIKISVRYDPDGKIKKVKFTKFEPYSAGG [r13_770_TrROS]
1.03

Respond only with folding stability dG unfold recorded for SAGGLLPLLKEIAEALGLPEIESLSFDPETGELTLRFRGPEPYLLRIPFRPVKDGGIPLDIEVYPTDLSAGG [r13_410_TrMRF]
2.86

Respond only with folding stability dG unfold recorded for SAGGSAMTLEELKGMPIRSWWPGGQKIEMPIKKIDLNDPMFEIKFGGEPIKIPFNHPMRIEIQPPKSAGGSA [r15_355_TrROS]
0.0637

Respond only with folding stability dG unfold recorded for SAGGSAGGSAGGMVTATVTEYQPGEGLLTVKPPDGSTITIAVPPSVSYEELKNTTIDLSLSAGGSAGGSAGG [r7_296_JUSTAS]
1.09

Respond only with folding stability dG unfold recorded for SAGGSAKPKVEVEIVDVEFEEVEVNGKKYLVMKMKVKLKETGEYIEVTMVFDLKTNKMYIEVKKLPSAGGSA [r15_528_TrROS_Hall]
3.49

Hi! Can you tell me folding stability dG unfold for each of these sequences?
1. SAGGSAGGEEAREAIEQELRARGINVTEIKVEEKKLTPDKTVVTFTVTARLPDSELTSTFTVVDSAGGSAGG [r6_533_JUSTAS]
2. SAGGSAPKPDWIVRIEITVKFPGKTKKIDIVIDSPEALNQIINELKDEGFKDVEPKIEWVPLEEMKSAGGSA [r15_1015_TrROS]

1. 0.141
2. 0.296

Hi! Can you tell me folding stability dG unfold for each of these sequences?
1. SAGGSAGGSDNVKIEWEYNPENGVYTHEVYYDDGRPVTIIINPAEGPIWVFDPPDGKPIAPIPSAGGSAGGS [r12_657_TrROS]
2. DYKIKIPVARFPDGYWYIRAEIEDPDGETHEYEYPIPMPPGDTFDIDLPEDEPYKIKKIWIYHNGKPQPITS [r1_70_TrROS]
3. SAGGAMVPVNFTLKFTYTNPDGTPVFREKPVTLPFPESDPAAAEAAARARAEAEAAARGVEVDLEVSLSAGG [r13_853_JUSTAS]
4. SAGGSAGGSEITILIKDENGYLIKVKVELKLKKNKDGKKTLELKIEITEIYKVPSKEEAKKLLSAGGSAGGS [r12_915_TrROS_Hall]

1.36
0.922
0.0284
0.755

Hi! Can you tell me folding stability dG unfold for each of these sequences?
1. SMTLTIDLDPSVPYLVRIHFVNEDGEPYEADALTTRTPDGTAFVDIALPDDSIPPGADIKILSVEVIPLDSA [r9_359_TrMRF]
2. SMKIKIEPLPDGSYRLVAEVPEDAEETENLFPLTGKPIVVKREKNKLVIEFDNPEEVELFAEALKKNIPLSA [r9_515_TrMRF]
3. SAGGSAGGSAGGGSITITFKHPDGGEVTIEITPPEPTVRVTVTLPNGEKLEYEFDFVPASAGGSAGGSAGGS [r10_595_TrMRF]
4. SAGGSAGGSKVKLTFTIPPGTTPEEAIAKAEELAKKLNIPIVKIDSIEYDPETGTVRIELELDSAGGSAGGS [r12_131_TrMRF]
5. SAGGSAGMMPTKITVTLTLPPDAPDVEAVAERLAAELGVEVSNAEVLEVRRLPDGSREVVIELTLLSAGGSA [r15_654_JUSTAS]
6. SAMDIGPEERAELLLRTLANIAKEEIEKGDLEKAKIFVINGIAEENPPLAERILKEAKELGLPVIILPESAG [r14_908_TrMRF]
7. SAGGMPYRLDAVRVEVRPRPDGGPLLVVELTYPDGSRETAVFDSPEDLLRALENSPRFSEITLLPSVSAGGS [r16_757_TrMRF]

1: 1.63; 2: 1.28; 3: 3.24; 4: 4.05; 5: 4.2; 6: 0.659; 7: 1.01

Hi! Can you tell me folding stability dG unfold for each of these sequences?
1. SAMYKIRLKNGEEIELEGMSIEELEKLFPDVELEIEKVEKVPVVKAPSKEEAEELAKKLPPGAKIIVEDSAG [r14_445_TrROS_Hall]
2. SAGGSAGGSAGGKKYKIKVYVKDKKTKKWKKIKEIEVDTKEEALEAIKKLPPNYEVKIVPSAGGSAGGSAGG [r7_307_TrROS_Hall]
3. SAGGLSLEELADELAQENGWEITEAEPIEFTPNTIRFEVTVRMPDGKRRTIEIEIEIPPPKPPDQPKSAGGS [r8_309_TrROS]
4. SAGGSAGGSIKITIYDIMRMLGPNAPPAEWVEKVKHLAKWLADKLGLPDVEIEVEVMSPDQFPSAGGSAGGS [r12_666_TrROS]
5. SAGGSAGGSAGGMSITISVPEKTATIEIPGLGKTITIPPGETITVPIPNVPPFKITTEPPSAGGSAGGSAGG [r11_939_JUSTAS]
6. SAGGSAGGSAGMVIELPDGRKAIIVKYDKETKRFYVEIVDKKTGEKKIYEFKSLEEALKASAGGSAGGSAGG [r17_300_TrROS_Hall]

[0.287, 4.11, 1.15, 3.3, 0.76, 2.18]

Hi! Can you tell me folding stability dG unfold for each of these sequences?
1. SAGMPAGDFEPVKVEYTIKIPILNEGGGAAAPMPIKVKVEVYRMPNGNLFIKFEIEIPGGNKIEFWFPISAG [r5_580_TrROS]
2. SAGGSAGGSAMPVKVKVTVKARFGDKEFELEFEIEVGPGATEEDIKNLVTEKYPGFEEVELESAGGSAGGSA [r18_195_JUSTAS]

[2.67, 1.92]

Respond only with folding stability dG unfold recorded for SAEDEYEVELTFEAPLNEPEVIEKIKKELEELGFEIEEVKVEVLEDPKTVKVTLKARVKGIPPEKLKALSAG [r14_956_TrMRF]
1.78
